System: HL-60(TB) leukemia
assay.method.text: NCI tumour cell line growth inhibition, 48 h
recorded.endpoint: TGI

INSERT INTO measurements (compound, recorded_endpoint, observed) VALUES
  ('Cc1c(C)n(CC(O)CNC2CCCCC2C)c2ccccc12 (centres undefined)', 'TGI', '42.7 µM'),
  ('CC(=O)N(CN1C(=O)CCC1C(=O)O)c1ccc(C)cc1 (centres undefined)', 'TGI', '> 100 µM'),
  ('COc1cc2c(cc1OCCCOc1cc3c(cc1OC)C(=O)N1CC(F)(F)C[C@H]1C=N3)N=C[C@@H]1CC(F)(F)CN1C2=O', 'TGI', '2 µM'),
  ('COC(=O)c1ccc(CS(=O)(=O)c2ccccc2)cc1', 'TGI', '> 100 µM'),
  ('O=C1C2c3[nH]c4ccccc4c3C3CCC(c4ccccc4)CC3C2C(=O)N1c1ccccc1 (centres undefined)', 'TGI', '71.1 µM'),
  ('CCC(C#N)NCc1ccc(CNC(C#N)CC)cc1 (centres undefined)', 'TGI', '> 100 µM'),
  ('S=P(C1CCCCC1)(C1CCCCC1)C(c1cccnc1)N1CCCC1 (centres undefined)', 'TGI', '37 µM'),
  ('CCCCCCCCCCCCCCCCCCNc1ccn(C2OC(COP(=O)(O)OCC(COP(=O)(O)OCC3OC(n4cc(C)c(=O)[nH]c4=O)CC3N=[N+]=[N-])OCCCCCCCCCCCCCCCCCC)C(O)C2O)c(=O)n1 (centres undefined)', 'TGI', '> 100 µM'),
  ('COc1ccc2c(c1)O/C(=C\c1ccc([N+](=O)[O-])o1)C2=O', 'TGI', '5.69 µM');

###

Examples of compounds with documented TGI follow.
System: HCT-15 colon
assay.method.text: NCI tumour cell line growth inhibition, 48 h
recorded.endpoint: TGI

INSERT INTO results (compound, recorded_endpoint, observed) VALUES
  ('NC(CCCNc1ccc(O)cc1)C(=O)O (centres undefined)', 'TGI', '> 60.7 µM'),
  ('C[C@@]1([C@H](OC(=O)c2cccc3ccccc23)C(N)=O)CO1', 'TGI', '10.7 µM'),
  ('CCCCCCCC(=O)SCC/C=C/[C@@H]1CC(=O)NCc2cccc(n2)C2=N[C@@](C)(CS2)C(=O)N[C@@H](C(C)C)C(=O)O1', 'TGI', '> 33.3 µM'),
  ('CC[C@@]1(O)C(=O)OCc2c1cc1n(c2=O)Cc2cc3c([N+](=O)[O-])c(O)ccc3nc2-1', 'TGI', '> 100 µM'),
  ('Nc1ccc([As](=O)(O)O)cc1', 'TGI', '> 100 µM'),
  ('O=C1CSC(c2c[nH]c3ccccc23)N1c1cccc([N+](=O)[O-])c1 (centres undefined)', 'TGI', '> 100 µM'),
  ('COc1cc2c(cc1OCCCOc1cc3c(cc1OC)C(=O)N1CC(F)(F)C[C@H]1C=N3)N=C[C@@H]1CC(F)(F)CN1C2=O', 'TGI', '50.6 µM'),
  ('O=c1oc2cc(O)ccc2c(O)c1C(c1ccc2ccccc2c1)c1c(O)c2ccc(O)cc2oc1=O', 'TGI', '> 100 µM'),
  ('C=CC1CC12C(=O)C1OC2(C)C2C(=O)c3c(O)cccc3C(=O)C12 (centres undefined)', 'TGI', '44.6 µM');

###

Tested on: M19-MEL melanoma
assay.method.text: NCI tumour cell line growth inhibition, 48 h
recorded.endpoint: TGI

INSERT INTO results (compound, observed) VALUES
  ('Cc1nc2ccccc2c(=O)n1Nc1ccc(C(=O)O)cc1', '> 100 µM'),
  ('CN(C)CCNC(=O)c1ccccc1Nc1c(Cl)cccc1Cl', '24.5 µM'),
  ('CC1(C)CCc2cc3c(cc2O1)OC(C)(C)CC3=O', '> 100 µM'),
  ('CC(C)COC(=O)N1N=NC2C3CC(=O)C(O3)C21 (stereo unspecified)', '> 100 µM'),
  ('Cc1cc(N(CCC#N)CCC#N)ccc1/C=C(\NC(=O)/C=C/c1ccccc1)NC(=O)Nc1ccccc1C', '> 100 µM'),
  ('C=C(c1ccccc1)[C@@]1(O)CCCC[C@H]1NC(c1ccccc1)c1ccccc1', '28.3 µM');

###

System: NCI-H23 lung
assay.method.text: NCI tumour cell line growth inhibition, 48 h
recorded.endpoint: TGI

INSERT INTO assay_data (compound, target_or_system, observed) VALUES
  ('COc1ccc2c(c1)[n+]([O-])c(/C(C)=N/NC(N)=S)c(C)[n+]2[O-]', 'NCI-H23 lung', '> 100 µM'),
  ('Oc1ccccc1/C=N/Nc1nc2ccccc2s1', 'NCI-H23 lung', '> 100 µM'),
  ('CCCCCCCCCCCCCCC(C(=O)[O-])[n+]1ccccc1 (stereo unspecified)', 'NCI-H23 lung', '> 100 µM'),
  ('N=C1/C(=C/c2ccco2)C(=O)N=C2SC=NN12', 'NCI-H23 lung', '> 100 µM'),
  ('CCN(CC)c1ccc(CNc2cc(C)nc3ccc(OC)cc23)cc1', 'NCI-H23 lung', '9.8 µM'),
  ('COC1CC(=O)C2C(=O)N(c3ccccc3)C(=O)C23C(C(=O)c2ccccc2)=C(C)NC13O (stereo unspecified)', 'NCI-H23 lung', '46.3 µM'),
  ('O=C(O)\C=C/C=C/C=C/C=C/C(=O)O', 'NCI-H23 lung', '> 100 µM'),
  ('COc1cccc(-c2cc(C(=O)Nc3ccc(Cl)cc3)nc(N)n2)c1', 'NCI-H23 lung', '> 100 µM'),
  ('NC(N)=NS(=O)(=O)c1ccc(NC(=O)c2cccn3c(=O)c4ccccc4nc23)cc1', 'NCI-H23 lung', '> 100 µM'),
  ('O=C(Nc1ccc(-n2ccc3c(NC(=O)c4ccccc4)ncnc32)cc1)Nc1ccc(Cl)c(C(F)(F)F)c1', 'NCI-H23 lung', '5.28 µM'),
  ('CN1CCN2c3ccccc3CC(C#N)(C#N)C2C1 (stereo unspecified)', 'NCI-H23 lung', '> 100 µM');

###

Test system: NCI-H460 lung
assay.method.text: NCI tumour cell line growth inhibition, 48 h
Reported TGI by item:
recorded.endpoint: TGI (µM)

INSERT INTO results (compound, target_or_system, value_relation_sign, observed) VALUES
  ('CN(C)CCn1c2c(c3ccccc31)CCc1ccccc1-2', 'NCI-H460 lung', '=', 27.5),
  ('C=C(C)[C@@H]1CC[C@]2(C(=O)N3CCN(C)CC3)CC[C@]3(C)[C@H](CC[C@@H]4[C@@]5(C)C/C(=C/c6ccncc6)[C@H](O)C(C)(C)[C@@H]5CC[C@]43C)[C@@H]12', 'NCI-H460 lung', '=', 17),
  ('CCOc1ccc(NC(=O)/C(Cc2nc3ccccc3[nH]c2=O)=N\O)cc1', 'NCI-H460 lung', '>', 100),
  ('OCC(O)C(O)C(O)c1nn[nH]n1 (centres undefined)', 'NCI-H460 lung', '>', 100),
  ('Clc1ccc(C2ON=C(c3ccccc3)N2C23CC4CC(CC(C4)C2)C3)cc1Cl (centres undefined)', 'NCI-H460 lung', '>', 10),
  ('Nc1c(C(=O)c2ccc(Cl)cc2)[nH]c(Nc2ccc(Cl)cc2)c1C(=S)Nc1ccccc1', 'NCI-H460 lung', '=', 20.8),
  ('O=C(Nc1ccc(-n2ccc3c(NC(=O)c4ccccc4)ncnc32)cc1)Nc1ccc(Cl)c(C(F)(F)F)c1', 'NCI-H460 lung', '=', 3.06),
  ('COC(=O)c1c(O)ccc2c1c1cc3ccccc3c(O)c1n2Cc1ccccc1Cl', 'NCI-H460 lung', '=', 78.4),
  ('COc1cc(/C=C/C(=O)c2ccc(F)cc2)ccc1OCCCCOc1cc2c(cc1OC)C(=O)N1CCCC1C=N2 (centres undefined)', 'NCI-H460 lung', '=', 6.67);

###

Tested on: SNB-78 CNS
assay.method.text: NCI tumour cell line growth inhibition, 48 h
The following compounds are shown together with reported TGI values.
recorded.endpoint: TGI

INSERT INTO results (compound, observed) VALUES
  ('C[C@]12CC[C@H](OC(=O)Cc3ccc(N(CCCl)CCCl)cc3)CC1CC[C@@H]1C2CC[C@]2(C)NC(=O)CCC12 (stereo not given in full)', '39.3 µM'),
  ('CC(C)NC1CCCCC2c3cc(F)ccc3[C@]12O (stereo not given in full)', '> 100 µM'),
  ('[O-]c1ccccc1[C-]=Nc1ccccc1O.[O-]c1ccccc1[C-]=Nc1ccccc1O.[O]=[U]=[O]', '61.2 µM'),
  ('CC12CCC(=O)N1c1cc([N+](=O)[O-])ccc1N2 (stereo not given)', '> 100 µM'),
  ('CC(/C=C/C=C\C=C\C=C(/C)C(=O)NC(C)CO)=C\C(C)C(O)/C(C)=C/C(C)CCc1ccccc1 (stereo not given)', '25.2 µM'),
  ('COC(=O)c1ccc(CS(=O)(=O)c2ccccc2)cc1', '> 100 µM'),
  ('O=C1C2c3[nH]c4ccccc4c3C3CCC(c4ccccc4)CC3C2C(=O)N1c1ccccc1 (stereo not given)', '> 100 µM'),
  ('COc1cc(C(=O)O)cc2c1[nH]c1ccccc12', '> 25 µM'),
  ('Cc1cccc(NC(N)=S)c1', '> 100 µM'),
  ('Clc1cc2nc[nH]c2cc1Cl', '> 100 µM'),
  ('C/C(=N\NC(=O)C[n+]1ccccc1)c1sc(-c2nc(C)c(/C(C)=N/NC(=O)C[n+]3ccccc3)s2)nc1C', '> 100 µM'),
  ('CN1C(=O)C(C)(C)NS1(=O)=O', '> 100 µM'),
  ('CC(=O)O[C@H]1CC[C@@]2(C)C(=CC[C@@H]3C2CC[C@]2(C)C(=O)NC(=O)CC32)C1 (stereo not given in full)', '> 100 µM'),
  ('CS(=O)(=O)OCCCCOS(C)(=O)=O', '233 µM'),
  ('ClCCN(CC#CCCCC#CCN(CCCl)CCCl)CCCl', '57.5 µM');
